Kindly state pEC50 for each of the entries shown.
molecular target: NiVB-G (Nipah virus, strain Bangladesh)
As a rule, pEC50 stands for the negative log10 of the concentration, concentration in M.

Reported pEC50 of HENV-226 (antibody, V domains shown) VH: EERLVQSGGGLAQPGQSLRLSCAGFGFTFTRYEMNWVRQAPGKGLEWIAHISTRGDTISYADSVKGRATISRDDTNNSLDLQMDSLRAEDTAIYFCARDRGSLSTRPPDSYHYYYHGMDVWGQGTTVIVSS VL: EIVLTQSPATLSLSPGERATLSCRASQSIDTYLAWYQQKPGQAPRLLIYDASNRATGIPARFSGSGSGTDFSLTISSLEPDDFAVYYCQQRSNRPPRYTFGLGTRLEIK : 9.44

Reported pEC50 of HENV-137 (antibody, V domains shown) VH: EVQLVESGGGLVQPRGSLRLSCAASGFTFSGYWMSWVRQAPGKGLEWVAKIKKDGSEKTYVDSVKGRFTISRDNAKDSLYLQMNSLRAEDTAVYYCARERLLVPAAIVGLDYYYAMDVWGQGTTVTVSS VL: DIQMTQSPSSLSASVGDRVTITCRASQNMSTYLNWYQQKPGKAPKFLIYGASRLQNGVPSRFSGGGSGTDFTLTISSLQPEDFATYYCQQSYNIPITFGQGTRLEIK : 9.08

Reported pEC50 of HENV-98 (antibody, V domains shown) VH: AVQLVESGGGLVQPGGSLRLSCEASGFTFSGYWMSWVRQAPGKGLEWVANIKGDGSEKYYVDSVKGRFTIFRDNAKTSLYLQVNSLRAEDTAVYYCARERHFLAARPGYYIYSGLDVWGPGTTVTVSS VL: DIQMTQSPSSLSASVGDRVTITCRASQSIDNYLNWYQQKPGKVPKLLIYAASNLQSGVPSKFSGGGSGTDFTLTISSLQPDDFATYYCQQSFGTPRTFGQGTRVEIK : 9.24

Reported pEC50 of HENV-83 (antibody, V domains shown) VH: QVQLVESGGGVVQPGGSLRLSCAASGFTFRSYSMNWVRQAPGKGPEWMAVISYDGSNKYYTDSVKGRFTISRDNSKNTLNLQMNSLTSEDTAIYYCARFRGGGRIAARPDDYGMDVWGQGTTVTVST VL: DIQMTQSPSSLSASVGDRVTITCRASESVITYLNWYQQKPGKAPKLLIYGASTLESGVPSRFSGSGSGTVFTLTISSLQPEDIATYYCQQSYNMSPYTFGQGTKLEIK : 8.55
